# Experimental system: YAP1-TEAD4 (Homo sapiens) (UniProt P46937+Q15561)
# Assay summary: Covalent inhibition of GST-tagged TEAD4 (217 to 434 residues) (unknown origin) expressed in Escherichia coli BL21 (DE3) cells/FAM-labelled YAP1 (60 to 99 residues)(unknown origin) protein-protein interaction assessed as second protein-compound adduct formation at 100 uM incubated for 24 hrs at 4 degree C followed by mass spectrometry analysis
Examples of compounds with documented percent second protein-compound adduct follow.
Numbers only; they are read as %.

Q) Given the compound COc1ccc(CN(C(=O)CCl)C(C(=O)NC2CCCCC2)c2cccs2)cc1 (stereo not given) , what is its reported percent second protein-compound adduct?
A) 20

Q) And then COc1ccc(C2=NN(C(=O)CCl)C(c3nc4ccccc4[nH]3)C2)cc1 (stereo not given) , what is it?
A) 30

Q) Can you handle O=C(CCl)N1N=C(c2ccccc2)CC1c1ccccc1 (stereo not given) next?
A) 21
